B1: Cytoplasmic polyadenylation element-binding protein 2, residues 513 to 575; numbered along this chain, Q7Z5Q1 (parent)
chain: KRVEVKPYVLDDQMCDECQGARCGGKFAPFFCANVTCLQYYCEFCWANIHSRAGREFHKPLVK

Variants of: B1
Assay: abundance fitness (aPCA) (normalised: wild type 0, dead -1); higher = more abundant; growth selection in yeast, the domain comes from the species named
Conditions: Homo sapiens
Could you label it rule met if measured abundance fitness is -0.3 or higher, and rule not met otherwise?

Reference set (4 entries):
{"columns": ["mutation-descriptor", "group"],
 "data": [
  ["K1A", "rule not met"],
  ["V35K", "rule met"],
  ["A33T", "rule met"],
  ["L10P", "rule met"]
]}

Incoming: Dear colleague, could you confirm whether "Y41G" has abundance fitness at or above -0.3?
Outgoing: rule not met

Incoming: Dear colleague, could you confirm whether "C32S" has abundance fitness at or above -0.3?
Outgoing: rule not met

Reference for the values: the Human Domainome abundance scans (Beltran et al. 2025)
